# abundance fitness annotations
B1: Cytoplasmic polyadenylation element-binding protein 2, residues 513 to 575; numbered along this chain, Q7Z5Q1 (parent)
chain: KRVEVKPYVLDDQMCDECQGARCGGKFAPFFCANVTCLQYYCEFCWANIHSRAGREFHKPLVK

Variants of: B1
ASSAY_NAME: abundance fitness (aPCA) (normalised: wild type 0, dead -1); higher = more abundant; growth selection in yeast, the domain comes from the species named
CONDITION_DESCRIPTION: Homo sapiens
QUANTITY: abundance fitness

# SEQ_TEXT, QUANTITY, NUMERIC_RESULT
records = [
    ("HRVEVKPYVLDDQMCDECQGARCGGKFAPFFCANVTCLQYYCEFCWANIHSRAGREFHKPLVK [K1H]", "abundance fitness", -0.599),
    ("KRVEVKPYVLDDQMCDECAGARCGGKFAPFFCANVTCLQYYCEFCWANIHSRAGREFHKPLVK [Q19A]", "abundance fitness", -0.008),
    ("KRVEVKPYVLDDQMCDECQTARCGGKFAPFFCANVTCLQYYCEFCWANIHSRAGREFHKPLVK [G20T]", "abundance fitness", -0.571),
    ("KRVEVKPYVLDDQMCDECQGARCGGKFAPFFCANVTCLQYYCEFCWANIHGRAGREFHKPLVK [S51G]", "abundance fitness", 0.051),
    ("KRVEVWPYVLDDQMCDECQGARCGGKFAPFFCANVTCLQYYCEFCWANIHSRAGREFHKPLVK [K6W]", "abundance fitness", -0.315),
    ("KRVEVKPYVLDDQMCDECQGARCGGKFAPFFCANVTCLQYYCEFCWANIQSRAGREFHKPLVK [H50Q]", "abundance fitness", -0.727),
    ("KRVEVKPYALDDQMCDECQGARCGGKFAPFFCANVTCLQYYCEFCWANIHSRAGREFHKPLVK [V9A]", "abundance fitness", -0.02),
    ("KRVEVKPYVLDDQMCDECQGACCGGKFAPFFCANVTCLQYYCEFCWANIHSRAGREFHKPLVK [R22C]", "abundance fitness", -0.419),
    ("KRVHVKPYVLDDQMCDECQGARCGGKFAPFFCANVTCLQYYCEFCWANIHSRAGREFHKPLVK [E4H]", "abundance fitness", -0.363),
    ("KRVEVKPYVLDDTMCDECQGARCGGKFAPFFCANVTCLQYYCEFCWANIHSRAGREFHKPLVK [Q13T]", "abundance fitness", -0.087),
    ("KRVEVKPYVLDDQMCDECQGARCGGKFAPFFCANVLCLQYYCEFCWANIHSRAGREFHKPLVK [T36L]", "abundance fitness", -0.121),
    ("KRVEVKPYVLDDQMCDMCQGARCGGKFAPFFCANVTCLQYYCEFCWANIHSRAGREFHKPLVK [E17M]", "abundance fitness", -0.188),
    ("KRVEVKPYVLDDQMCDECQGARCGGKFAPFFYANVTCLQYYCEFCWANIHSRAGREFHKPLVK [C32Y]", "abundance fitness", -0.837),
    ("KRVEVKYYVLDDQMCDECQGARCGGKFAPFFCANVTCLQYYCEFCWANIHSRAGREFHKPLVK [P7Y]", "abundance fitness", -0.405),
    ("KRVEVKPYVLDDQMCDECQGARCGGKFMPFFCANVTCLQYYCEFCWANIHSRAGREFHKPLVK [A28M]", "abundance fitness", -0.445),
    ("KRVEVKPYVLDDQMCDECQGARCGGKFAPFFCANVTCLQYYCEFCWANDHSRAGREFHKPLVK [I49D]", "abundance fitness", -0.186),
    ("KRVEVKPYVLDDQMCDECQGARCGGKFAPFFCANVTCLQYYCEFCWAEIHSRAGREFHKPLVK [N48E]", "abundance fitness", 0.104),
    ("KRVEVKPYVLDDQMCDECQGAPCGGKFAPFFCANVTCLQYYCEFCWANIHSRAGREFHKPLVK [R22P]", "abundance fitness", -0.504),
    ("KRVEVKPYVLDDQMCDECQGARCGGKFAPFFCANVTCLQYYCEFCWACIHSRAGREFHKPLVK [N48C]", "abundance fitness", -0.033),
    ("KRVEVKPYVLDSQMCDECQGARCGGKFAPFFCANVTCLQYYCEFCWANIHSRAGREFHKPLVK [D12S]", "abundance fitness", -0.146),
    ("KRFEVKPYVLDDQMCDECQGARCGGKFAPFFCANVTCLQYYCEFCWANIHSRAGREFHKPLVK [V3F]", "abundance fitness", -0.197),
    ("KRVTVKPYVLDDQMCDECQGARCGGKFAPFFCANVTCLQYYCEFCWANIHSRAGREFHKPLVK [E4T]", "abundance fitness", -0.111),
]

Ref: the Human Domainome abundance scans (Beltran et al. 2025)
